experiment: DMT plasma concentration after a single SC injection of DMT succinate to rats
Type: in vivo
testContext: rat, plasma, sc, 10 mg/kg, 10 mg/kg DMT succinate single SC, Day 1, rats; read-out: AUC0-24 hr
Source text: Example 2: Study of DMT Succinate Administered Subcutaneously

{"columns": ["molecule", "unit", "AUC(0-t)"],
 "data": [
  ["CN(C)CCc1c[nH]c2ccccc12 [DMT, N,N-dimethyltryptamine]", "ng·h/mL", 3560]
]}

---

experiment: DMT plasma concentration after a single SC injection of DMT succinate to rats
Format: in vivo
testContext: rat, plasma, sc, 5 mg/kg, 5 mg/kg DMT succinate single SC, Day 1, rats; read-out: AUC0-24 hr
parameterMeasured: AUC(0-t) (ng·h/mL)

{"columns": ["inputSmiles", "measuredResult"],
 "data": [
  ["CN(C)CCc1c[nH]c2ccccc12", 306]
]}

---

experiment: DMT plasma concentration after a single SC injection of DMT succinate to rats
Type: in vivo
testContext: both sexes, rat, plasma; 10 mg/kg DMT succinate single SC, Day 1, rats males and females combined
parameterMeasured: Cmax (ng/mL)

{"columns": ["inputSmiles", "measuredResult"],
 "data": [
  ["CN(C)CCc1c[nH]c2ccccc12", 1260]
]}

---

experiment: DMT plasma concentration after a single SC injection of DMT succinate to rats
Type: in vivo
testContext: both sexes, rat, plasma; 5 mg/kg DMT succinate single SC, Day 1, rats males and females combined
From the text: Example 2: Study of DMT Succinate Administered Subcutaneously

{"columns": ["inputSmiles", "Cmax"],
 "data": [
  ["CN(C)CCc1c[nH]c2ccccc12", "228 ng/mL"]
]}
